Test: Comparative pharmacokinetic test of the formulation in beagle dog, Experimental Example 8
Format: in vivo
Details: beagle, dog, plasma, iv, 2 mg/kg, 2 mg/kg solution (iv), 10% HP-PCD, single dose, beagle dog plasma
PROPERTY NAME: half-life (h)
Could you give me the number in h? Just the number is fine.

Query :: Quick one: half-life for C[C@@H]1CN(c2ccc(S(C)(=O)=O)cc2F)CCN1c1nccc(C(=O)NC2C3CC4CC2CC(O)(C4)C3)n1 (stereo partly shown) ?
Result :: 4.07

###

Assay: Comparative pharmacokinetic test of the formulation in beagle dog, Experimental Example 8
Assay type: in vivo
Settings: beagle, dog, plasma, po, 100 mg, 100 mg tablet (po), per head, single dose, beagle dog plasma; read-out: Vz(terminal)/F
PROPERTY NAME: Vd/F (L)
Note: unit L is implicit; provide only the numeric part.

Query :: For the compound C[C@@H]1CN(c2ccc(S(C)(=O)=O)cc2F)CCN1c1nccc(C(=O)NC2C3CC4CC2CC(O)(C4)C3)n1 (stereo partly shown) , what Vd/F is on record?
Result :: 119

###

Assay: Comparative pharmacokinetic test of the formulation in beagle dog, Experimental Example 8
Format: in vivo
Details: beagle, dog, plasma, po, 100 mg, 100 mg tablet (po), per head, single dose, beagle dog plasma
PROPERTY NAME: Cmax (ng/mL)
The figure you give is taken to be in ng/mL; do not add the unit.

Query :: Which Cmax value belongs to C[C@@H]1CN(c2ccc(S(C)(=O)=O)cc2F)CCN1c1nccc(C(=O)NC2C3CC4CC2CC(O)(C4)C3)n1 (stereo partly shown) ?
Result :: 899

###

Experiment: Comparative pharmacokinetic test of the formulation in beagle dog, Experimental Example 8
Type: in vivo
Details: beagle, dog, plasma, po, 25 mg, 25 mg solution (po), per head, suspended in 2.5% HP-PCD, single dose, beagle dog plasma
Description: By applying the conditions of Preparation Example 10, tablets containing 25, 50, and 100 mg of the crystalline solid of chemical formula 1 as a pharmaceutical raw material were manufactured. An experiment was conducted to analyze the pharmacokinetic characteristics of the manufactured tablets after oral administration to a beagle dog. […]
PROPERTY NAME: half-life (h)
// note: answer is a bare numeric in h

Query :: Consider the molecule C[C@@H]1CN(c2ccc(S(C)(=O)=O)cc2F)CCN1c1nccc(C(=O)NC2C3CC4CC2CC(O)(C4)C3)n1 (stereo partly shown) and give its measured half-life.
Result :: 6.32

###

Assay: Comparative pharmacokinetic test of the formulation in beagle dog, Experimental Example 8
Format: in vivo
Settings: beagle, dog, plasma, po, 50 mg, 50 mg tablet (po), per head, single dose, beagle dog plasma
PROPERTY NAME: half-life
# include the unit after the value

Query :: May I ask what half-life has been recorded for C[C@@H]1CN(c2ccc(S(C)(=O)=O)cc2F)CCN1c1nccc(C(=O)NC2C3CC4CC2CC(O)(C4)C3)n1 (stereo partly shown) [chemical formula 1] ?
Result :: 5.29 h

###

Test: Comparative pharmacokinetic test of the formulation in beagle dog, Experimental Example 8
Format: in vivo
Settings: beagle, dog, plasma, po, 25 mg, 25 mg tablet (po), per head, single dose, beagle dog plasma
PROPERTY NAME: half-life (h)
Use h as the unit, but write only the number.

Query :: Entry C[C@@H]1CN(c2ccc(S(C)(=O)=O)cc2F)CCN1c1nccc(C(=O)NC2C3CC4CC2CC(O)(C4)C3)n1 (stereo partly shown) has what half-life?
Result :: 4.42
